Cited source for all entries: paper PMC6017322

# test_system: cathepsin G (Homo sapiens, UniProt P08311)
# Construct: purified cathepsin G (0.2 µg) from human neutrophils; purchased Calbiochem; host or cells: human neutrophils (natural source)
# Sequence (P08311 21-244 limits assumed): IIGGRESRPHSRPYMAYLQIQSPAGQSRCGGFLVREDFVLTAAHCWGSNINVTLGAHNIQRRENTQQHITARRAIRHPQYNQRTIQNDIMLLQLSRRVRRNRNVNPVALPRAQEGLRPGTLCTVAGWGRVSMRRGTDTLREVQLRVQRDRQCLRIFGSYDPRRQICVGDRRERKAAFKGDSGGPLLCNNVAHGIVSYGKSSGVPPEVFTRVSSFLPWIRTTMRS
# assay_text: Cathepsin G activity in a cell-free assay (Suc-AAPF-pNA substrate)
# Format: biochemical
# experimental_context: at 10 µM

- compound: "C=C(C)[C@@H]1CC[C@]2(CO)CC[C@]3(C)[C@H](CC[C@@H]4[C@@]5(C)CC[C@@H](O)[C@](C)(C(=O)O)[C@@H]5CC[C@]43C)[C@@H]12 [compound 11]"
  inhibition at 10 µM: "27 to 44%"
- compound: "CC(C)=CCC[C@H](C(=O)O)[C@@H]1CC[C@]2(C)C3=C(CC[C@@]12C)[C@@]1(C)CC[C@@H](O)C(C)(C)[C@@H]1CC3 [compound 14]"
  inhibition at 10 µM: "27 to 44%"
- compound: "CC(C)=CCC[C@H](C(=O)O)[C@@H]1CC[C@]2(C)C3=CC[C@H]4C(C)(C)[C@H](O)CC[C@]4(C)[C@H]3CC[C@@]12C [compound 13]"
  inhibition at 10 µM: "27 to 44%"

###

# test_system: 5-LO (Homo sapiens, UniProt P09917)
# Sequence (P09917 whole entry): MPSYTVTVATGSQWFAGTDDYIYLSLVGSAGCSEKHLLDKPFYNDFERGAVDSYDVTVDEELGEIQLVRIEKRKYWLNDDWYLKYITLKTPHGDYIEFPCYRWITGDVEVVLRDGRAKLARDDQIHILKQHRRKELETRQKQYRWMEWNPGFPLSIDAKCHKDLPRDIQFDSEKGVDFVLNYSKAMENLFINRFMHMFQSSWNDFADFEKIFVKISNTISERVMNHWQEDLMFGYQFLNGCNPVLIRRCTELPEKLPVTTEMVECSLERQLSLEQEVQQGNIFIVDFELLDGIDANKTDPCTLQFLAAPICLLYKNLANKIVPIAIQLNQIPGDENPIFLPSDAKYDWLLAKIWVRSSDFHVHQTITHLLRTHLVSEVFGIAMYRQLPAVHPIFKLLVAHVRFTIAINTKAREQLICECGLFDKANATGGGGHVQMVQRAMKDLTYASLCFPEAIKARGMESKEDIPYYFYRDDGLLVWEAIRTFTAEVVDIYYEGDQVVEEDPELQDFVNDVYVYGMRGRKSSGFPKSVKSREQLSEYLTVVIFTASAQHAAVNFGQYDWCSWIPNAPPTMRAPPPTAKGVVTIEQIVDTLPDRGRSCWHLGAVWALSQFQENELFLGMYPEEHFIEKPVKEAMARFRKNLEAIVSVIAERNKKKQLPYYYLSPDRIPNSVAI
# assay_text: 5-LO product formation in intact human neutrophils stimulated with A23187 (cell-based)
# Set-up: 5-LO product formation in intact human neutrophils; endogenous in cells; host or cells: freshly isolated human peripheral blood neutrophils
# experimental_context: residual activity at 10 µM; human neutrophils, A23187; mean ± SEM, 3–4 experiments; read-out: 5-LO Activity [% Control] cell-based

- smiles_string: "C[C@H]1[C@H](C)CC[C@]2(C)CC[C@]3(C)C(=CC(=O)[C@@H]4[C@@]5(C)CC[C@@H](OC(=O)C(=O)O)[C@](C)(C(=O)O)[C@@H]5CC[C@]43C)[C@H]12"
  remaining activity at 10 µM / %: 70.3
- smiles_string: "C[C@H]1[C@H](C)CC[C@]2(C)CC[C@]3(C)C(=CC(=O)[C@@H]4[C@@]5(C)CC[C@@H](O)[C@](C)(C(=O)O)[C@@H]5CC[C@]43C)[C@H]12"
  remaining activity at 10 µM / %: 25.7

###

# test_system: cathepsin G (Homo sapiens, UniProt P08311)
# Construct: purified cathepsin G (0.2 µg) from human neutrophils; purchased Calbiochem; host or cells: human neutrophils (natural source)
# assay_text: Cathepsin G activity in a cell-free assay (Suc-AAPF-pNA substrate)
# Type: biochemical
# experimental_context: residual activity at 10 µM; cell-free; mean ± SEM, 3–4 experiments; read-out: Cat. G Activity [% Control]
measured_endpoint: remaining activity at 10 µM (%)

- compound: "CC(C)[C@@H]1CC[C@]2(C)[C@H](CC=C3[C@@H]4[C@@H](C)[C@H](C)CC[C@]4(C)CC[C@]32C)[C@@]1(C)CCC(=O)O [compound 6]"
  test_system: "cathepsin G (Homo sapiens, UniProt P08311)"
  measured_endpoint: "remaining activity at 10 µM"
  value_observed: 70.4
- compound: "C[C@H]1[C@H](C)CC[C@]2(C)CC[C@]3(C)C(=CC[C@@H]4[C@@]5(C)CC[C@@H](O)[C@](C)(C(=O)O)[C@@H]5CC[C@]43C)[C@H]12 [compound 3, β-BA]"
  test_system: "cathepsin G (Homo sapiens, UniProt P08311)"
  measured_endpoint: "remaining activity at 10 µM"
  value_observed: 27.7
- compound: "C=C(C)[C@@H]1CC[C@]2(CO)CC[C@]3(C)[C@H](CC[C@@H]4[C@@]5(C)CC[C@@H](O)[C@](C)(C(=O)O)[C@@H]5CC[C@]43C)[C@@H]12 [compound 11]"
  test_system: "cathepsin G (Homo sapiens, UniProt P08311)"
  measured_endpoint: "remaining activity at 10 µM"
  value_observed: 68.1
- compound: "C[C@H]1[C@H](C)CC[C@]2(C)CC[C@]3(C)C(=C[C@@H](O)[C@@H]4[C@@]5(C)CC[C@@H](O)[C@](C)(C(=O)O)[C@@H]5CC[C@]43C)[C@H]12 [compound 18, 11α-Hydroxy-β-boswellic acid]"
  test_system: "cathepsin G (Homo sapiens, UniProt P08311)"
  measured_endpoint: "remaining activity at 10 µM"
  value_observed: 62.9
- compound: "CC(=O)O[C@@H]1CC[C@@]2(C)[C@@H](CC[C@]3(C)[C@@H]2CC=C2[C@@H]4[C@@H](C)[C@H](C)CC[C@]4(C)CC[C@]23C)[C@@]1(C)C(=O)O [compound 4, 3-O-acteyl-β-BA]"
  test_system: "cathepsin G (Homo sapiens, UniProt P08311)"
  measured_endpoint: "remaining activity at 10 µM"
  value_observed: 28.1
